Target: hα9α10 nAChRs (Homo sapiens, UniProt Q9GZZ6+Q9UGM1)
Construct: host or cells: Xenopus laevis oocytes, cRNA-injected (α9:α10 cRNA ratio 1:1)
Sequence (Q9UGM1 26-479 limits assumed): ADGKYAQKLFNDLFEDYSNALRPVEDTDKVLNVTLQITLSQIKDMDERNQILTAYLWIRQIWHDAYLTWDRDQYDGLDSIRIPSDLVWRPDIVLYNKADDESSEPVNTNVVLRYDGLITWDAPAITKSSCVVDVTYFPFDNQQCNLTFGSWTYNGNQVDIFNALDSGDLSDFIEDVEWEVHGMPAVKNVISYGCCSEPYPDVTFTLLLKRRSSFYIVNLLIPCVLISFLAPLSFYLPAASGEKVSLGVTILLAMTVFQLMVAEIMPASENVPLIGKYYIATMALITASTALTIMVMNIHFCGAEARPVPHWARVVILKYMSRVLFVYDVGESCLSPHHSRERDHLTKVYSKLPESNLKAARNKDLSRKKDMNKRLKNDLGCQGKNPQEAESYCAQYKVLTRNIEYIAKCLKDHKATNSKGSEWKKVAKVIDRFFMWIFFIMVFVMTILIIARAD
Sequence (Q9GZZ6 25-450): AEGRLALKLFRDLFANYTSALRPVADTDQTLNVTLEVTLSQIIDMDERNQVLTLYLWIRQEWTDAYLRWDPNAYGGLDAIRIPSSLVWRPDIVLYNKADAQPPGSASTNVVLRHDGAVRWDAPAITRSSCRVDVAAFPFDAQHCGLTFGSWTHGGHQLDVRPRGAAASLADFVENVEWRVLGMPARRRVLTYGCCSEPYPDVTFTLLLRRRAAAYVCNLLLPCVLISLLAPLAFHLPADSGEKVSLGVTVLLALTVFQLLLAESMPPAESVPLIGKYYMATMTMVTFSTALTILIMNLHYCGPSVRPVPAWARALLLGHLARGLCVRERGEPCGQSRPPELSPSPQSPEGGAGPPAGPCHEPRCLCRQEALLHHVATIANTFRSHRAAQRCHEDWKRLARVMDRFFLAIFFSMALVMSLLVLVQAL
Test: Two-electrode voltage clamp, compound-evoked currents (compound applied alone) at hα9α10 nAChRs in Xenopus laevis oocytes
Assay type: cell-based
Details: compound applied alone
Exercise: for every item that follows, state its recorded n H (Hill coefficient of activation).

[Q] Give n H (Hill coefficient of activation) (hα9α10 nAChRs (Homo sapiens, UniProt Q9GZZ6+Q9UGM1)) of the following molecule: C[N+](C)(CCCOc1ccc(/C=C/c2ccccc2)cc1)C1CCCCC1.[I-]
[A] 3.0

[Q] Give n H (Hill coefficient of activation) (hα9α10 nAChRs (Homo sapiens, UniProt Q9GZZ6+Q9UGM1)) of the following molecule: C[N+](C)(CCOc1ccc(CCc2ccccc2)cc1)C1CCCCC1.[I-]
[A] 3.2

[Q] Give n H (Hill coefficient of activation) (hα9α10 nAChRs (Homo sapiens, UniProt Q9GZZ6+Q9UGM1)) of the following molecule: C[N+](C)(CCOc1ccc(/C=C/c2ccccc2)cc1)C1CCOCC1.[I-]
[A] 2.4

[Q] Give n H (Hill coefficient of activation) (hα9α10 nAChRs (Homo sapiens, UniProt Q9GZZ6+Q9UGM1)) of the following molecule: C[N+](C)(CCOc1ccc(OCc2ccccc2)cc1)C1CCCCC1.[I-]
[A] 3.7

====

Target: hα9α10 nAChRs (Homo sapiens, UniProt Q9GZZ6+Q9UGM1)
Construct: host or cells: Xenopus laevis oocytes, cRNA-injected (α9:α10 cRNA ratio 1:1)
Assay: Two-electrode voltage clamp, compound-evoked currents (compound applied alone) at hα9α10 nAChRs in Xenopus laevis oocytes
Format: cell-based
Conditions: compound applied alone (300 pM to 30 μM), normalized to response at highest concentration, read-out: EC50
Exercise: for every item that follows, state its recorded pEC50.
The quantity pEC50 is defined as the negative base-10 logarithm of the molar concentration.

[Q] # get_value(readout='pEC50', item= C[N+](C)(CCOc1ccc(CCc2ccccc2)cc1)C1CCCCC1.[I-] [Compound 16] )
[A] 6.32

[Q] # get_value(readout='pEC50', item= C[N+](C)(CCCOc1ccc(/C=C/c2ccccc2)cc1)C1CCCCC1.[I-] [Compound 14] )
[A] 6.29

[Q] # get_value(readout='pEC50', item= CC[N+](CC)(CC)CCOc1ccc(OCc2ccccc2)cc1 [Compound 19] )
[A] 5.99

[Q] # get_value(readout='pEC50', item= CC[N+](CC)(CC)CCOc1ccc(-c2ccccc2)cc1 [Compound 17] )
[A] 6.32

[Q] # get_value(readout='pEC50', item= C[N+](C)(CCOc1ccc(/C=C/c2ccccc2)cc1)c1ccccc1.[I-] [Compound 9] )
[A] 6.32

[Q] # get_value(readout='pEC50', item= C[N+](C)(CCOc1ccc(/C=C/c2ccccc2)cc1)C1CCCCCC1.[I-] [Compound 8] )
[A] 6.52

[Q] # get_value(readout='pEC50', item= C[N+](CCOc1ccc(/C=C/c2ccccc2)cc1)(Cc1ccccc1)Cc1ccccc1 [Compound 13] )
[A] 5.15

[Q] # get_value(readout='pEC50', item= C[N+](C)(CCOc1ccc(/C=C/c2ccccc2)cc1)C1CCCC1.[I-] [Compound 7] )
[A] 6.76

[Q] # get_value(readout='pEC50', item= C[N+](C)(CCOc1ccc(OCc2ccccc2)cc1)C1CCCCC1.[I-] [Compound 21] )
[A] 6.47

[Q] # get_value(readout='pEC50', item= C[N+](C)(CCOc1ccc(/C=C/c2ccccc2)cc1)C1CCOCC1.[I-] [Compound 6] )
[A] 6.73
